Reference source for all entries: patent US20250188058A1

- Protocol description: Solubility estimation by aliquot addition in solvents
- Assay type: physicochemical
- Conditions used: organic solvent or mixture, thermodynamic from solid; Acetonitrile, 20° C.; read-out: Solubility Range
Quantity name: solubility

Give the reported value of solubility for this record: CCCn1cc(OCC(F)(F)F)c(C(=O)Nc2ccc(Oc3ccnc4cc(OC)c(OC)cc34)cn2)n1.Cl [Q702 HCl salt] < 20 mg/mL

###

- Protocol description: Pharmacokinetic study in plasma after oral administration
- Format: in vivo, male SD rats
- Conditions used: male, SD, rat, 30 mg/kg, vehicle water, plasma
- Method: In this example, pharmacokinetic studies are performed using the form A of the HCl-salt of Q702 and the free base (FB) thereof in plasma, following oral administration of such form A and free base to male SD rats. […] Plasma concentrations versus time were plotted and analysed by non-compartmental approaches using the Phoenix WinNonlin 6.3 software program. Related pharmacokinetic parameters were calculated according to dosing route, e. g.
Quantity name: AUC(0-t)
Give me the value, and tack the unit on after it.

[
  {
    "Compound": "CCCn1cc(OCC(F)(F)F)c(C(=O)Nc2ccc(Oc3ccnc4cc(OC)c(OC)cc34)cn2)n1.Cl [Q702 HCl form A]",
    "Recorded measurement": "430 µg·h/mL"
  }
]

# ---- query compound ----
Give the reported value of AUC(0-t) for this record: CCCn1cc(OCC(F)(F)F)c(C(=O)Nc2ccc(Oc3ccnc4cc(OC)c(OC)cc34)cn2)n1 [Q702 free base] 323 µg·h/mL

###

I'd be grateful if you could share measured half-life for these entries.
- Protocol description: Pharmacokinetic study in plasma after oral administration
- Format: in vivo, male SD rats
- Conditions used: male, SD, rat, 30 mg/kg, vehicle water, plasma
- Protocol: In this example, pharmacokinetic studies are performed using the form A of the HCl-salt of Q702 and the free base (FB) thereof in plasma, following oral administration of such form A and free base to male SD rats. […] Plasma concentrations versus time were plotted and analysed by non-compartmental approaches using the Phoenix WinNonlin 6.3 software program. Related pharmacokinetic parameters were calculated according to dosing route, e. g.
Give bare numbers, in h.

[
  {
    "Molecule": "CCCn1cc(OCC(F)(F)F)c(C(=O)Nc2ccc(Oc3ccnc4cc(OC)c(OC)cc34)cn2)n1 [Q702 free base]",
    "Recorded measurement": 10.9
  }
]

# ---- query molecule ----
Give the reported value of half-life for this record: CCCn1cc(OCC(F)(F)F)c(C(=O)Nc2ccc(Oc3ccnc4cc(OC)c(OC)cc34)cn2)n1.Cl [Q702 HCl form A] 10.3

###

- Protocol description: Solubility estimation by aliquot addition in solvents
- Format: physicochemical
- Conditions used: organic solvent or mixture, thermodynamic from solid; Dimethyl sulfoxide, 20° C.; read-out: Solubility Range
Quantity name: solubility

Give the reported value of solubility for this record: CCCn1cc(OCC(F)(F)F)c(C(=O)Nc2ccc(Oc3ccnc4cc(OC)c(OC)cc34)cn2)n1.Cl [Q702 HCl salt] > 201 mg/mL

###

- Protocol description: Solubility estimation by aliquot addition in solvents
- Type: physicochemical
- Conditions used: organic solvent or mixture, thermodynamic from solid; Methanol, 20° C.; read-out: Solubility Range
Quantity name: solubility

Give the reported value of solubility for this record: CCCn1cc(OCC(F)(F)F)c(C(=O)Nc2ccc(Oc3ccnc4cc(OC)c(OC)cc34)cn2)n1.Cl [Q702 HCl salt] 49 to 66 mg/mL

###

- Protocol description: Pharmacokinetic study in plasma after oral administration
- Format: in vivo, male SD rats
- Conditions used: male, SD, rat, 30 mg/kg, vehicle water, plasma
Quantity name: Cmax (ng/mL)
Numbers only, in ng/mL.

[
  {
    "Compound": "CCCn1cc(OCC(F)(F)F)c(C(=O)Nc2ccc(Oc3ccnc4cc(OC)c(OC)cc34)cn2)n1 [Q702 free base]",
    "Cmax (ng/mL)": 33800
  }
]

# ---- query compound ----
Give the reported value of Cmax for this record: CCCn1cc(OCC(F)(F)F)c(C(=O)Nc2ccc(Oc3ccnc4cc(OC)c(OC)cc34)cn2)n1.Cl [Q702 HCl form A] 37000

###

- Protocol description: Pharmacokinetic study in plasma after oral administration
- Assay type: in vivo, male SD rats
- Conditions used: male, SD, rat, 30 mg/kg, vehicle water, plasma
Quantity name: Tmax (h)
Numbers only, in h.

[
  {
    "Molecule": "CCCn1cc(OCC(F)(F)F)c(C(=O)Nc2ccc(Oc3ccnc4cc(OC)c(OC)cc34)cn2)n1.Cl [Q702 HCl form A]",
    "Tmax [h]": 2.83
  }
]

# ---- query molecule ----
Give the reported value of Tmax for this record: CCCn1cc(OCC(F)(F)F)c(C(=O)Nc2ccc(Oc3ccnc4cc(OC)c(OC)cc34)cn2)n1 [Q702 free base] 3.33

###

- Protocol description: Solubility estimation by aliquot addition in solvents
- Assay type: physicochemical
- Conditions used: organic solvent or mixture, thermodynamic from solid; Ethyl acetate, 20° C.; read-out: Solubility Range
Quantity name: solubility

Give the reported value of solubility for this record: CCCn1cc(OCC(F)(F)F)c(C(=O)Nc2ccc(Oc3ccnc4cc(OC)c(OC)cc34)cn2)n1.Cl [Q702 HCl salt] < 20 mg/mL

###

- Protocol description: Pharmacokinetic study in plasma after oral administration
- Assay type: in vivo, male SD rats
- Conditions used: male, SD, rat, plasma, 30 mg/kg, test = form A of HCl-salt, ref = free base of Q702, read-out: relative bioavailability
Quantity name: bioavailability (%)
Numbers only, in %.

Give the reported value of bioavailability for this record: CCCn1cc(OCC(F)(F)F)c(C(=O)Nc2ccc(Oc3ccnc4cc(OC)c(OC)cc34)cn2)n1.Cl [Q702 HCl form A] 144

###

- Protocol description: Solubility estimation by aliquot addition in solvents
- Assay type: physicochemical
- Conditions used: organic solvent or mixture, thermodynamic from solid; Dichloromethane, 20° C.; read-out: Solubility Range
Quantity name: solubility

Give the reported value of solubility for this record: CCCn1cc(OCC(F)(F)F)c(C(=O)Nc2ccc(Oc3ccnc4cc(OC)c(OC)cc34)cn2)n1.Cl [Q702 HCl salt] 66 to 100 mg/mL

###

- Protocol description: physchem
- Conditions used: pH 6.8, water, thermodynamic from solid
Quantity name: solubility
Give me the value, and tack the unit on after it.

Give the reported value of solubility for this record: CCCn1cc(OCC(F)(F)F)c(C(=O)Nc2ccc(Oc3ccnc4cc(OC)c(OC)cc34)cn2)n1.Cl [Q702 HCl salt] 1950 µg/mL

###

- Protocol description: Solubility estimation by aliquot addition in solvents
- Format: physicochemical
- Conditions used: organic solvent or mixture, thermodynamic from solid; Methyl tert-butyl ether, 20° C.; read-out: Solubility Range
Quantity name: solubility

Give the reported value of solubility for this record: CCCn1cc(OCC(F)(F)F)c(C(=O)Nc2ccc(Oc3ccnc4cc(OC)c(OC)cc34)cn2)n1.Cl [Q702 HCl salt] < 20 mg/mL
